- System: Staphylococcus aureus
- procedure text: Antimicrobial activity against methicillin-resistant Staphylococcus aureus by broth microdilution method
- Format: functional
Active and inactive are the calls of the source. The rule behind the calls is not given here.
assay metric: MIC

smi	MIC
O=C(O)c1ccc(-n2cc(/C=N/Nc3ccc(C(F)(F)F)cc3)c(-c3ccc(F)c(F)c3)n2)cc1	0.78 µg/mL
O=C(O)c1ccc(-n2cc(/C=N/Nc3ccc(F)cc3)c(-c3ccc(F)cc3F)n2)cc1	25 µg/mL
O=C(O)c1ccc(-n2cc(/C=N/Nc3ccc([N+](=O)[O-])cc3)c(-c3ccc(F)cc3F)n2)cc1	inactive
O=C(O)c1ccc(-n2cc(/C=N/Nc3c(F)c(F)c(F)c(F)c3F)c(-c3ccc(F)cc3F)n2)cc1	inactive
O=C(O)c1ccc(-n2cc(/C=N/Nc3ccccc3F)c(-c3ccc(F)c(F)c3)n2)cc1	12.5 µg/mL

Give one value of MIC per listed compound.
1. O=C(O)c1ccc(-n2cc(/C=N/N3CCCCC3)c(-c3ccc(F)cc3F)n2)cc1
2. CN[C@H](CC(C)C)C(=O)N[C@H]1C(=O)N[C@@H](CC(N)=O)C(=O)N[C@H]2C(=O)N[C@H]3C(=O)N[C@H](C(=O)N[C@H](C(=O)O)c4cc(O)cc(O)c4-c4cc3ccc4O)[C@H](O)c3ccc(c(Cl)c3)Oc3cc2cc(c3O[C@@H]2O[C@H](CO)[C@@H](O)[C@H](O)[C@H]2O[C@H]2C[C@](C)(N)[C@H](O)[C@H](C)O2)Oc2ccc(cc2Cl)[C@H]1O

A:
1. inactive
2. 12.5 µg/mL

---

- System: HEK293
- procedure text: Cytotoxicity against human HEK293 cells assessed as reduction in cell viability at 50 ug/ml after 24 hrs by resazurin dye based method
- measurement setup: hek293, 24 h
assay metric: Activity

// worked examples, Activity included
>>> print(df.to_string())
                                        smi  assay_metric  result
0  O=C(O)c1ccc(-n2cc(/C=N/Nc3ccc(Cl)cc3Cl)c(-c3ccc(F)cc3F)n2)cc1      Activity   > 80%
1  O=C(O)c1ccc(-n2cc(/C=N/Nc3cc(F)ccc3F)c(-c3ccc(F)c(F)c3)n2)cc1      Activity     69%
2  O=C(O)c1ccc(-n2cc(/C=N/Nc3cccc(F)c3)c(-c3ccc(F)cc3F)n2)cc1      Activity   > 80%

Shift focus to the following entry.
Q: Please report the recorded Activity for O=C(O)c1ccc(-n2cc(/C=N/Nc3ccccc3F)c(-c3ccc(F)c(F)c3)n2)cc1 .
A: > 80%

---

- Test system: Staphylococcus aureus
- procedure text: Antimicrobial activity against methicillin-resistant Staphylococcus aureus by broth microdilution method
- Type: functional
Calls of active or inactive are those of the source. The calls are words filed in the database; no cut-off is given here.
assay metric: MIC

Below are worked cases with known answers.
>>> df
                                        smi      target_under_test  assay_metric      result
0  O=C(O)c1ccc(-n2cc(/C=N/Nc3ccccc3F)c(-c3ccc(F)cc3F)n2)cc1  Staphylococcus aureus           MIC    25 µg/mL
1  O=C(O)c1ccc(-n2cc(/C=N/Nc3c(F)c(F)cc(F)c3F)c(-c3ccc(F)cc3F)n2)cc1  Staphylococcus aureus           MIC    inactive
2  O=C(O)c1ccc(-n2cc(/C=N/Nc3ccc([N+](=O)[O-])cc3)c(-c3ccc(F)c(F)c3)n2)cc1  Staphylococcus aureus           MIC    inactive
3  O=C(O)c1ccc(-n2cc(/C=N/Nc3cc(F)ccc3F)c(-c3ccc(F)cc3F)n2)cc1  Staphylococcus aureus           MIC  12.5 µg/mL
4  O=C(O)c1ccc(-n2cc(/C=N/Nc3cccc(F)c3)c(-c3ccc(F)c(F)c3)n2)cc1  Staphylococcus aureus           MIC  12.5 µg/mL

Give MIC for each of the items listed below.
1. O=C(O)c1ccc(-n2cc(/C=N/Nc3ccc(Br)cc3)c(-c3ccc(F)c(F)c3)n2)cc1
2. O=C(O)c1ccc(-n2cc(/C=N/Nc3ccc(Br)cc3)c(-c3ccc(F)cc3F)n2)cc1
3. O=C(O)c1ccc(-n2cc(/C=N/Nc3cccc(C(=O)O)c3)c(-c3ccc(F)cc3F)n2)cc1
4. O=C(O)c1ccc(-n2cc(/C=N/Nc3ccccc3)c(-c3ccc(F)cc3F)n2)cc1
5. O=C(O)c1ccc(-n2cc(/C=N/Nc3ccc(Cl)cc3)c(-c3ccc(F)c(F)c3)n2)cc1
6. CN1CCN(/N=C/c2cn(-c3ccc(C(=O)O)cc3)nc2-c2ccc(F)c(F)c2)CC1
7. O=C(O)c1ccc(N/N=C/c2cn(-c3ccc(C(=O)O)cc3)nc2-c2ccc(F)c(F)c2)cc1
8. O=C(O)c1ccc(-n2cc(/C=N/Nc3c(F)c(F)cc(F)c3F)c(-c3ccc(F)c(F)c3)n2)cc1

A:
1. 1.56 µg/mL
2. 12.5 µg/mL
3. inactive
4. 25 µg/mL
5. 6.25 µg/mL
6. inactive
7. inactive
8. 12.5 µg/mL

Here are 3 compounds. What values of MIC were reported for them?
1. CN1CCN(/N=C/c2cn(-c3ccc(C(=O)O)cc3)nc2-c2ccc(F)cc2F)CC1
2. O=C(O)c1ccc(N/N=C/c2cn(-c3ccc(C(=O)O)cc3)nc2-c2ccc(F)cc2F)cc1
3. O=C(O)c1ccc(-n2cc(/C=N/Nc3cc(F)ccc3F)c(-c3ccc(F)c(F)c3)n2)cc1

A:
1: inactive; 2: inactive; 3: inactive

Look at each compound and report its MIC.
1. O=C(O)c1ccc(-n2cc(/C=N/Nc3cccc(F)c3)c(-c3ccc(F)cc3F)n2)cc1
2. O=C(O)c1ccc(-n2cc(/C=N/Nc3ccc(F)cc3)c(-c3ccc(F)c(F)c3)n2)cc1

A:
["25 µg/mL", "25 µg/mL"]
